# system_name: 3',5'-cyclic-AMP phosphodiesterase 4B (Homo sapiens, UniProt Q07343)
# Sequence (Q07343 whole entry): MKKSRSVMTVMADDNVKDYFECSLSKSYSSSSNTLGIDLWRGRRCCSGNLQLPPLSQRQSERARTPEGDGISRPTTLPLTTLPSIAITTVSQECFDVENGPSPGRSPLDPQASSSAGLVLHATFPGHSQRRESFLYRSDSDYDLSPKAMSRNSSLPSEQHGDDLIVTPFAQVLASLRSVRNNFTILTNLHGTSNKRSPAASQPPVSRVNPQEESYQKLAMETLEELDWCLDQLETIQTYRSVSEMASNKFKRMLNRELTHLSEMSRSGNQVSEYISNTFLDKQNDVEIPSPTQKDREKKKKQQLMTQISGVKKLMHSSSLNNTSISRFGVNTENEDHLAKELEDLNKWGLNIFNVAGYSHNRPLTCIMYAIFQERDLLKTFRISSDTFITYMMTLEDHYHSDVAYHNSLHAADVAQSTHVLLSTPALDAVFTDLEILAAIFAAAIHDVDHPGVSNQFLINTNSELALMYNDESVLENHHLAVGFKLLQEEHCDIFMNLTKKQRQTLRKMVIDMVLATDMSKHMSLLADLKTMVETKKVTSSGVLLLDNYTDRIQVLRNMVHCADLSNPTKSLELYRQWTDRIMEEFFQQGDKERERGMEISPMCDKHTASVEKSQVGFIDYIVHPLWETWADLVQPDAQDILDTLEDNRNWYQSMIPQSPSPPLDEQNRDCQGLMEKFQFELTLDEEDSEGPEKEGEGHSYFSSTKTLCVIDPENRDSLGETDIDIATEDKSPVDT
# assay_protocol: Inhibition of human PDE4B in Sf9 cells
pIC50: −log10 of the molar value.
Where pIC50 equals or exceeds 7, the correct label is true (1); where it does not, the label is false (0).

cpd_smiles | assigned_class
CCOC(=O)c1cnc2c(cnn2CC)c1N(C)C1CCOCC1 | false (0)
CCOC(=O)c1cnc2c(cnn2C(C)C)c1NC1CCOCC1 | false (0)
CCOC(=O)c1cnc2c(cnn2Cc2ccccc2)c1NC1CCOCC1 | false (0)
CCC(CC)CNC(=O)c1cnc2c(cnn2CC)c1NC1CCOCC1 | true (1)

Moving on to the next molecule.
Task item: I'd appreciate it if you could say whether "CCOC(=O)CCn1ncc2c(NC3CCOCC3)c(C(=O)OCC)cnc21" has pIC50 at least equal to 7.
Reply: false (0)

====

# system_name: 3',5'-cyclic-AMP phosphodiesterase 4B (Homo sapiens, UniProt Q07343)
# assay_protocol: Inhibition of human PDE4B in Sf9 cells
IC50 listing for selected compounds.
Return type: number; implicit unit µM.

These solved cases illustrate the format of a correct answer.
cpd_smiles | unit_string | IC50
CCn1ncc2c(NC3CCOCC3)c(C(=O)N3CCCC3)cnc21 | µM | 0.158
CCn1ncc2c(NC3CCOCC3)c(C(=O)NC3CCCC3)cnc21 | µM | 0.0501
CCOC(=O)c1cnc2c(cnn2CC)c1NC(=O)c1ccccc1 | µM | 2.51
CCOC(=O)c1cnc2c(cnn2CC)c1NC1CCOCC1 | µM | 0.01

Task item: Recorded IC50 for "CCn1ncc2c(NC3CCOCC3)c(C(=O)NCC3CCCCC3)cnc21" , please?
Reply: 0.00794

====

# assay_protocol: Oral bioavailability in rat
# Format: ADME, organism-based
# conditions_used: in vivo
experimental_endpoint: bioavailability

Task item: Returns the measured bioavailability for the input compound. Input: "CCn1ncc2c(NC3CCOCC3)c(C(=O)NCc3ccccc3)cnc21"
Reply: 35%

====

# system_name: 3',5'-cyclic-AMP phosphodiesterase 4B (Homo sapiens, UniProt Q07343)
# assay_protocol: Inhibition of human PDE4B in Sf9 cells
The following compounds are shown together with reported IC50 values.
API: value field is a number in µM; no unit string.

Worked cases, IC50 given:
cpd_smiles | unit_string | IC50
CCn1ncc2c(NC3CCOCC3)c(C(=O)NC3CCN(C(C)=O)CC3)cnc21 | µM | 0.126
CCOC(=O)c1cnc2c(cnn2C)c1NC1CCOCC1 | µM | 0.251

Would you kindly look at the next entry?
Task item: Quick one: IC50 of "CCn1ncc2c(NC3CCOCC3)c(C(N)=O)cnc21" ?
Reply: 0.0251

====

# system_name: 3',5'-cyclic-AMP phosphodiesterase 4B (Homo sapiens)
# assay_protocol: Inhibition of human PDE4B in Sf9 cells
Entries annotated with measured IC50
Please reply with the bare figure in µM and do not write the unit itself.

Look over these answered cases.
compound | experimental_endpoint | recorded_value
CCOC(=O)c1cnc2c(cnn2CC)c1N1CCCC1 | IC50 | 0.631
CCOC(=O)c1cnc2c(cnn2CC)c1NCc1ccc(F)cc1 | IC50 | 0.316
CCn1ncc2c(NC3CCOCC3)c(C(=O)N(C)Cc3ccccc3)cnc21 | IC50 | 0.0501
CCOC(=O)c1cnc2c(cnn2CCO)c1NC1CCOCC1 | IC50 | 0.158
CCOC(=O)c1cnc2c(cnn2-c2ccccc2)c1NC1CCOCC1 | IC50 | 3.16

Task item: Tell me the measured IC50 of "CCOC(=O)c1cnc2c(cnn2CC)c1Nc1ccccc1" , please.
Reply: 0.158

Task item: And what about the compound "CCOC(=O)c1cnc2c(cnn2CC)c1NC1CCCC1" ?
Reply: 0.0631

Task item: One more compound: CCCCNc1c(C(=O)OCC)cnc2c1cnn2CC [CARTAZOLATE]
Reply: 0.2

Task item: What about "CCOC(=O)c1cnc2c(cnn2CC)c1Nc1ccc(OC)cc1" ?
Reply: 1

Task item: Proceed to "CCCn1ncc2c(NC3CCOCC3)c(C(=O)OCC)cnc21"
Reply: 0.1

Task item: Also check "CCOC(=O)c1cnc2c(cnn2CC)c1NCC(C)C"
Reply: 0.0158

Task item: How about "CCOC(=O)c1cnc2[nH]ncc2c1NC1CCOCC1" ?
Reply: 2
